- assay-name: Aqueous solubility (pH 7.4)
- Assay type: physicochemical
- recorded-conditions: aqueous medium (pH 7.4; buffer not named), pH 7.4, aqueous buffer
- Description: Human liver microsome stability, rat hepatocyte stability, aqueous solubility and eLogD are platform assays conducted by TCG Lifesciences and undertaken using previously described protocols.[10]
measured-metric: solubility (µM)

Worked cases, answers included:
CN1C(=O)c2ccc(Cl)cc2N(C)C1(C)C(=O)Nc1cccc(Cl)c1 (stereo not shown) ... 2.6
CN1C(=O)c2ccc(Cl)cc2NC1(C)C(=O)Nc1cncc(Cl)c1 (stereo not shown) ... 5.2

a = CN1c2cc(Cl)ccc2C(=O)N(C2CC2)C1(C)C(=O)Nc1cncc(Cl)c1 (stereo not shown)
b = CC1(C(=O)Nc2cncc(Cl)c2)Nc2cc(Cl)ccc2C(=O)N1C1CC1 (stereo not shown)
Q: Just tell me: smaller solubility value, a or b ? Record your answer as the label of the chosen record.
Result: b
(b: 7 µM, a: 28 µM)

* * *

# solubility values compiled below
- assay-name: Aqueous solubility (pH 7.4)
- Type: physicochemical
- recorded-conditions: aqueous medium at pH 7.4 (buffer not named), pH 7.4, aqueous buffer

Worked cases, answers included:
CN1C(=O)c2ccc(Cl)cc2NC1(C)C(=O)Nc1cncc(Cl)c1 (stereo not shown) ... < 5.2 µM
CC1(C(=O)Nc2cncc(Cl)c2)Nc2cc(Cl)ccc2-c2nccn21 (stereo not shown) ... 84 µM
CN1C(=O)c2ccc(Cl)cc2N(C)C1(C)C(=O)Nc1cccc(Cl)c1 (stereo not shown) ... < 5.2 µM

Q: Suppose we examine the molecule CC1(C(=O)Nc2cncc(Cl)c2)Nc2cc(Cl)ccc2C2=NCCN21 (stereo not shown) ; what solubility value has been reported?
Result: > 200 µM

* * *

- Test system: P. falciparum (Pf) 3D7 parasites
- assay-name: P. falciparum LDH viability assay
- Assay type: cell-based
- recorded-conditions: Plasmodium falciparum, 3D7, 72 h, LDH activity at 72 h; mean and SD of 3 independent experiments
measured-metric: EC50 (nM)

Worked cases, answers included:
CN1C(=O)c2ccc(Cl)cc2NC1(C)C(=O)Nc1cncc(Cl)c1 (stereo not shown) ... 33
CN1C(=O)c2ccc(Cl)cc2NC1C(=O)Nc1cccc(Cl)c1 (stereo not shown) ... 80
CN1C(=O)c2ccc(-c3cccnc3)cc2NC1(C)C(=O)Nc1cncc(Cl)c1 (stereo not shown) ... 148
COc1ccc2c(c1)NC(C)(C(=O)Nc1cncc(Cl)c1)N(C)C2=O (stereo not shown) ... 74
CN1C(=O)c2ccc(Cl)cc2NC1(C)C(=O)Nc1cccc(Cl)c1 (stereo not shown) ... 18

1 = CN1C(=O)c2ccc(Cl)cc2N2CCCC12C(=O)Nc1cccc(Cl)c1 (stereo not shown)
2 = COc1ccc(-c2ccc3c(c2)NC(C)(C(=O)Nc2cncc(Cl)c2)N(C)C3=O)cn1 (stereo not shown)
Q: Just tell me: smaller EC50 value, 1 or 2 ? Record your answer as the label of the chosen record.
Result: 1

* * *

- test-system: Dd2‐PfATP4^G358S (Plasmodium falciparum, UniProt A0A143ZZK9, G1128R/G358S)
- Construct: We prepared membranes from Dd2‐Polδ‐PfATP4^G358S parasites (generated previously[22]); endogenous in cells
- Sequence (A0A143ZZK9 1-1264 G358S/G1128R): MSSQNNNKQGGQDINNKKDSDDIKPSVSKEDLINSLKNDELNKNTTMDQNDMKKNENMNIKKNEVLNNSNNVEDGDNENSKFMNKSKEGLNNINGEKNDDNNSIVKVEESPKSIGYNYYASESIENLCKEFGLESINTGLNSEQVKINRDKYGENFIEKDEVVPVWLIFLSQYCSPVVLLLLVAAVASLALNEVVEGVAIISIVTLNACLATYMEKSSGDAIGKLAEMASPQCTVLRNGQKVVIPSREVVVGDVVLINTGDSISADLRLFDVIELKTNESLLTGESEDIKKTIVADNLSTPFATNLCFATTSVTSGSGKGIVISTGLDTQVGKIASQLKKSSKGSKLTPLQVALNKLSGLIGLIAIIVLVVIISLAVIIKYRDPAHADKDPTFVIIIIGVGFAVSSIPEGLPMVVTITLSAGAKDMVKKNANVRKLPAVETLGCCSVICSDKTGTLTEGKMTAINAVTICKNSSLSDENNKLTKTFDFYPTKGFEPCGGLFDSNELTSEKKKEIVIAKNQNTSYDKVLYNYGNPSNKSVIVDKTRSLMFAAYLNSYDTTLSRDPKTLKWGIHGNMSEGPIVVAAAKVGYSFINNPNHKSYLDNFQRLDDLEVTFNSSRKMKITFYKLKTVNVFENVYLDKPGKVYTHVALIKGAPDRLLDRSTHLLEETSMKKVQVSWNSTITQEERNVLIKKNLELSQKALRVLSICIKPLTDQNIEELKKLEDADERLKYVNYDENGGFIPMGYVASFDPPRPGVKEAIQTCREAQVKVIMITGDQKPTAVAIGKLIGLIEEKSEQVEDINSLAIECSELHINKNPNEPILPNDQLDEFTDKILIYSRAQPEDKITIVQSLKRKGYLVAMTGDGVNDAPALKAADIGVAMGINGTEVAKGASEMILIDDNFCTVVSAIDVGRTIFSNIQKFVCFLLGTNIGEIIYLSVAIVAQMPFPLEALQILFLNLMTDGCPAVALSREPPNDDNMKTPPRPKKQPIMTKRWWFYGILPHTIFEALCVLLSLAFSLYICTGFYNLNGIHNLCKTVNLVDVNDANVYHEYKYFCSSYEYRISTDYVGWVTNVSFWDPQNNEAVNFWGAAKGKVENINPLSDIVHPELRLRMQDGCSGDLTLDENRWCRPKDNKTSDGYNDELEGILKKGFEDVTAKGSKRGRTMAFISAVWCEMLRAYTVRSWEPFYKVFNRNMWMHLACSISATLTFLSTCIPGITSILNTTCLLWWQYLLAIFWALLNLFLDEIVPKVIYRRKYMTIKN
- assay-name: PfATP4 Na+ assay (membrane ATPase), Dd2-Polδ-PfATP4^G358S membranes
- recorded-conditions: membranes from Dd2-Polδ-PfATP4^G358S parasites
# pEC50 values compiled below
Keep in mind that pEC50 stands for -log10 of concentration in molar terms.

COc1cc(F)c2c(c1)NC(C)(C(=O)Nc1cncc(Cl)c1)N(C)C2=O (centres unmarked) [Compound 36] ... 7.94

Q: Can you look up pEC50 on Dd2‐PfATP4^G358S (Plasmodium falciparum, UniProt A0A143ZZK9, G1128R/G358S) for CN1C(=O)c2ccc(Cl)cc2NC1(C)C(=O)Nc1cncc(Cl)c1 (centres unmarked) [Compound 14] ?
Result: 7.92
